System: Plasmodium falciparum
Assay: Antimalarial activity against chloroquine-sensitive Plasmodium falciparum NF54 infected in RBC after 72 hrs by [3H]hypoxanthine incorporation assay in presence of 0.5 % albumax
Assay type: functional, organism-based
pIC50: −log10 of the molar value.
Tick label 1 if pIC50 is 8 or greater. Tick label 0 if pIC50 is less than 8.

[[record]]
molecule = "CCCN(CCC)C(=O)c1cccc(C(=O)N[C@@H](Cc2ccccc2)[C@H](O)CNC(C)(C)c2cccc(C#N)c2)c1"
discrete_label = "label 1"

[[record]]
molecule = "CCCN(CCC)Cc1cc(CNC[C@@H](O)[C@H](Cc2ccccc2)NC(=O)c2ccc(Nc3ccnc(C)c3)cc2)ccc1O"
discrete_label = "label 0"

[[record]]
molecule = "CC(C)(NC[C@@H](O)[C@H](Cc1ccccc1)NC(=O)c1ccc(Cl)cc1)c1ccccc1"
discrete_label = "label 0"

[[record]]
molecule = "CCCN(CCC)Cc1cc(C2CCC(NC[C@@H](O)[C@H](Cc3ccccc3)NC(=O)c3ccc(N4CCN(C)CC4)cc3)CC2)ccc1O (stereo partly drawn)"
discrete_label = "label 0"

[[record]]
molecule = "CCN(CC)Cc1cc(Nc2cccc(C(=O)N[C@@H](Cc3ccccc3)[C@H](O)CNC3CCCC3)c2)ccc1O"
discrete_label = "label 0"

[[record]]
molecule = "CCCN(CCC)C(=O)c1cccc(C(=O)N[C@@H](Cc2ccccc2)[C@H](O)CNC(C)(C)c2ccc3ccccc3c2)c1"
discrete_label = "label 0"

[[record]]
molecule = "CC(=O)N[C@@H](Cc1ccccc1)[C@H](O)CNC(C)(C)c1ccccc1"
discrete_label = "label 0"

[[record]]
molecule = "CCCN(CCC)C(=O)c1cccc(C(=O)N[C@@H](Cc2ccccc2)[C@H](O)CNCCCc2ccccc2)c1"
discrete_label = "label 0"

[[record]]
molecule = "CC(C)(NC[C@@H](O)[C@H](Cc1ccccc1)NC(=O)c1ccc2cc[nH]c2c1)c1ccccc1"
discrete_label = "label 0"

[[record]]
molecule = "C[C@@H](NC[C@@H](O)[C@H](Cc1ccccc1)NC(=O)c1ccc(C(=O)N2CCN(C)CC2)cc1)c1ccccc1"
discrete_label = "label 1"

[[record]]
molecule = "CN1CCN(c2ccc(C(=O)N[C@@H](Cc3ccccc3)C(F)(F)CNC3CCCC3)cc2)CC1"
discrete_label = "label 0"

[[record]]
molecule = "CCCN(CCC)C(=O)c1ccccc1C(=O)N[C@@H](Cc1ccccc1)[C@H](O)CN[C@H](C)c1ccccc1"
discrete_label = "label 0"

[[record]]
molecule = "CCCN(CCC)Cc1ccc(Nc2ccc(C(=O)N[C@@H](Cc3ccccc3)[C@H](O)CN[C@H](C)c3ccccc3)cc2)cc1O"
discrete_label = "label 0"

[[record]]
molecule = "CCCN(CCC)C(=O)c1cccc(C(=O)N[C@@H](Cc2ccccc2)[C@H](O)CNC(C)(C)c2cccc(OC)c2)c1"
discrete_label = "label 1"

[[record]]
molecule = "CC(C)(NC[C@@H](O)[C@H](Cc1ccccc1)NC(=O)Cc1cccc2ccccc12)c1ccccc1"
discrete_label = "label 0"

[[record]]
molecule = "Cc1cc(C(=O)N[C@@H](Cc2ccccc2)[C@H](O)CNC(C)(C)c2ccccc2)nn1C"
discrete_label = "label 0"

[[record]]
molecule = "CC(C)(NC[C@@H](O)[C@H](Cc1ccccc1)NC(=O)c1cccc2ncccc12)c1ccccc1"
discrete_label = "label 0"

[[record]]
molecule = "CCCN(CCC)C(=O)c1ccc(C(=O)N[C@@H](Cc2ccccc2)[C@H](O)CN[C@H](C)c2ccccc2)cc1"
discrete_label = "label 1"

[[record]]
molecule = "C[C@@H](NC[C@@H](O)[C@H](Cc1ccccc1)NC(=O)c1ccc(N(C)C2CCN(C)CC2)cc1)c1ccccc1"
discrete_label = "label 1"

